# System: U-251
# Experiment: NCI tumour cell line growth inhibition, 48 h
Activity calls are given as the source filed them. No stated cut-off is given here; in the data, active = GI50 up to about 1.1 µM and inactive = higher.
// reported GI50 per item

Incoming: # return GI50 of COC(=O)C1SC(SC)=NC12c1ccccc1Nc1ccccc12 (stereo not given) (system: U-251)
Outgoing: 25.2 µM (inactive)

* * *

# Test system: U-251
# Experiment: NCI tumour cell line growth inhibition, 48 h
Active and inactive are the calls of the source. Rule as the data show it: active = GI50 up to about 1.1 µM and inactive = higher.
Measure Name: GI50

Compound: O=C(Nc1ccc(Nc2ccc3c(c2)C(=O)c2ccccc2C3=O)c2c1C(=O)c1ccccc1C2=O)c1ccccc1
Experimental System: U-251
Measure Name: GI50
Result: 19.5 µM (inactive)
--
Compound: CCc1cc2c(Nc3ccccc3)c3c(nc2s1)CCCC3
Experimental System: U-251
Measure Name: GI50
Result: 22 µM (inactive)
--
Compound: CC[N+]1(C)CCC(O)(/C=C/c2ccccc2)C(C(=O)/C=C/c2ccccc2)C1 (stereo not given)
Experimental System: U-251
Measure Name: GI50
Result: 8 µM (inactive)
--
Compound: O=C(Nc1cccc(C(F)(F)F)c1)O/N=C(/Cl)CCl
Experimental System: U-251
Measure Name: GI50
Result: 39.5 µM (inactive)

Now consider the entry below.
Incoming: Hello, please tell me recorded GI50 for this one: `CCN(CC)S(=O)(=O)c1ccc2[nH]c(NC(=O)OC)nc2c1`
Outgoing: > 100 µM (inactive)

* * *

# System: OVCAR-8
# Experiment: NCI tumour cell line growth inhibition, 48 h
Calls of active or inactive are those of the source. No stated cut-off is given here; in the data, active = GI50 up to about 1.1 µM and inactive = higher.
Thanks in advance; please answer with one of these: 1 (active), 0 (inactive)

Compound: C1CNOCCCONCCCNOCCCONC1
Assigned Class: 0

Compound: Cc1nc(C(N)=S)sc1C(/C=C/c1ccc(Cl)c(Cl)c1)=N/NC(C)(C)C
Assigned Class: 0

Compound: CSc1ccc2c(cc1=O)C(NC(=O)c1ccc(C#N)cc1)CCc1cc(O)c(O)c(O)c1-2 (stereo not given)
Assigned Class: 0

Compound: CCCCCC/C=C\CCCCCCCCCc1cccc(O)c1C(=O)O [GINKGOLIC ACID 17:1]
Assigned Class: 0

Compound: CSc1nnc(SCc2nn3c(=O)cc(C)nc3s2)s1
Assigned Class: 0

Consider now this further compound.
Incoming: GET /call?item= `ClCc1nc2cc(Cl)ccc2o1` returns the recorded outcome of this test.
Outgoing: 0

* * *

# System: COLO 205
# Experiment: NCI tumour cell line growth inhibition, 48 h
Active and inactive are the calls of the source. No stated cut-off is given here; in the data, active = GI50 up to about 1.1 µM and inactive = higher.
Measure Name: GI50

The examples below pair each entry with its known result.
Molecule: Cc1cc(Cl)ccc1Nc1nc2c(s1)C(=O)c1ccccc1C2=O
Measure Name: GI50
Result: 4.33 µM (inactive)
--
Molecule: CC1OC(NCCNCCNC2OC(C)C(O)C(O)C2O)C(O)C(O)C1O (stereo not given)
Measure Name: GI50
Result: > 100 µM (inactive)
--
Molecule: O=NN(CCCl)C(=O)NC1CCC(=O)NC1=O (stereo not given)
Measure Name: GI50
Result: 267 µM (inactive)
--
Molecule: COC(=O)/C=C(\C)CC/C=C(\C)CCC(O)C(C)(C)O (stereo not given)
Measure Name: GI50
Result: 19.7 µM (inactive)
--
Molecule: O=[N+]([O-])/C(C(Cl)=C(Cl)Cl)=C(\N1CCOCC1)n1nnc2ccccc21
Measure Name: GI50
Result: 18.8 µM (inactive)

Incoming: # return GI50 of `Cc1cnc[nH]c1=O` (system: COLO 205)
Outgoing: > 100 µM (inactive)

Incoming: # return GI50 of `O=C1Cc2c([nH]c3ccc(Br)cc23)-c2ccccc2N1` (system: COLO 205)
Outgoing: > 100 µM (inactive)

Incoming: # return GI50 of `O=C(Nc1ccc(Nc2ccc3c(c2)C(=O)c2ccccc2C3=O)c2c1C(=O)c1ccccc1C2=O)c1ccccc1` (system: COLO 205)
Outgoing: 51.6 µM (inactive)

Incoming: # return GI50 of `COc1cc(CN2CCCCC2)cc2cc(C(=O)O)c(=O)oc12` (system: COLO 205)
Outgoing: > 100 µM (inactive)

Incoming: # return GI50 of CCOC(=O)CCC(NC(=O)c1ccc(Nc2nc3cc(C(F)(F)F)ccc3nc2C(=O)OCC)cc1)C(=O)OCC (stereo not given) (system: COLO 205)
Outgoing: 4.14 µM (inactive)
